# Tested on: Escherichia coli NIHJ
# TEST_DESCRIPTION: Antibacterial activity, minimum inhibition concentration (method of The Chemotherapy Association, Japan)
# Format: cell-based
# CONDITION: Escherichia coli, strain K: Escherichia coli NIHJ; read-out: minimum inhibition concentration
Where a name gives a salt, the structure may show the parent alone.
MEASURE: log10(MIC) (log10 of the value in µg/mL)

COMPOUND	RESULT_VALUE
CC(=O)OCC1=C(C(=O)O)N2C(=O)C(NC(=O)C(=C(Cl)Cl)c3csc(N)n3)[C@H]2SC1 (stereo partly drawn) [5-(2)]	-1.00
CN(C)CCn1nnnc1SCC1=C(C(=O)O)N2C(=O)C(NC(=O)C(=C(Cl)Cl)c3csc(N)n3)C2SC1 (stereo not drawn) [10-(1)]	-1.00
CC(=O)OCC1=C(C(=O)O)N2C(=O)C(NC(=O)C(=C(Cl)Cl)c3cccs3)[C@H]2SC1 (stereo partly drawn) [Compound 41]	-0.41
CC(=O)OCC1=C(C(=O)O)N2C(=O)C(NC(=O)C(=C(Cl)Cl)c3cccc(O)c3)[C@H]2SC1 (stereo partly drawn) [Compound 3]	-0.70
CC(=O)OCC1=C(C(=O)O)N2C(=O)C(NC(=O)C(=C(Cl)Cl)c3ccsc3)[C@H]2SC1 (stereo partly drawn) [Compound 40]	0.19
CC(=O)OCC1=C(C(=O)O)N2C(=O)C(NC(=O)C(=C(Cl)Cl)c3ccc(O)cc3)[C@H]2SC1 (stereo partly drawn) [Compound 2]	-0.41
CC(=O)OCC1=C(C(=O)O)N2C(=O)C(NC(=O)C(=C(Cl)Cl)c3ccc(N)cc3)[C@H]2SC1 (stereo partly drawn) [4-(2)]	-0.41
CC(=O)OCC1=C(C(=O)O)N2C(=O)C(NC(=O)C(=C(Cl)Cl)c3ccc(Cl)c(Cl)c3)[C@H]2SC1 (stereo partly drawn) [Compound 30]	2.00
CC(=O)OCC1=C(C(=O)O)N2C(=O)C(NC(=O)C(=C(Cl)Cl)c3cccn3C)[C@H]2SC1 (stereo partly drawn) [Compound 36]	1.70
CC(=O)OCC1=C(C(=O)O)N2C(=O)C(NC(=O)C(=C(Cl)Cl)c3ccco3)[C@H]2SC1 (stereo partly drawn) [Compound 33]	0.19
Cn1nnnc1SCC1=C(C(=O)O)N2C(=O)C(NC(=O)C(=C(Cl)Cl)c3cccs3)C2SC1 (stereo not drawn) [Compound 39]	-0.41
CC1=C(C(=O)O)N2C(=O)C(NC(=O)C(=CCl)c3csc(N)n3)C2SC1 (single isomer, unassigned) [Compound 23, sodium salt]	0.80

###

# Test system: Escherichia coli NIHJ
# TEST_DESCRIPTION: Antibacterial activity, minimum inhibition concentration (method of The Chemotherapy Association, Japan)
# Type: cell-based
# CONDITION: Escherichia coli, strain K: Escherichia coli NIHJ; read-out: minimum inhibition concentration
List of MIC values.
MEASURE: MIC (µg/mL)

COMPOUND	CMP	RESULT_VALUE
CC(=O)OCC1=C(C(=O)O)N2C(=O)C(NC(=O)C(=C(Cl)Cl)c3ccc(NC(=O)OC(C)(C)C)cc3)C2SC1 (stereo not shown)	=	6.25
COc1ccc(C(C(=O)NC2C(=O)N3C(C(=O)O)=C(COC(C)=O)CS[C@H]23)=C(Cl)Cl)cc1 (stereo partly shown)	=	100
CC(=O)OCC1=C(C(=O)O)N2C(=O)C(NC(=O)C(=C(Cl)Cl)c3ccc(C)cc3)[C@H]2SC1 (stereo partly shown)	>	100
CC(=O)OCC1=C(C(=O)O)N2C(=O)C(NC(=O)C(=C(Cl)Cl)c3ccc(Br)s3)[C@H]2SC1 (stereo partly shown)	=	25
